B1: CPXM2 (parent)
chain: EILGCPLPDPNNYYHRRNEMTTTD

Variants of: B1
testName: protein stability index of a GFP-peptide fusion (GPS, HEK-293T) (PSI 1-6); higher = more stable;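 further: lentivirally expressed fusions sorted by FACS into six bins by GFP to DsRed ratio, PSI derived from sequencing read proportions per bin multiplied by bin number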
conditionsUsed: c terminus: a fixed tail appended
Would you kindly list protein stability index for each of these variants?
Answers are plain numbers.

Solved cases below.
EILGCPLPDPNNMYHRRNEMTTTD [Y13M]: 4
EILGCPLPDPNNYYKRRNEMTTTD [H15K]: 3.76

Required: protein stability index, one value per variant below.
1. EILGCPLPEPNNYYHRRNEMTTTD [D9E]
2. EILGCPLPDPNNYYHRRNEMMTTD [T21M]

Out:
1. 3.15
2. 3.23
